- Measured target: the molecule itself
- Method summary: oligomeric state of the purified design, and SAXS; antiparallel homodimer
Parameter measured: binding result

Requested read-out: binding result. Entry: 2L6Hanti_4 (designed binder, Monomer subunit of a designed left-handed antiparallel homodimer; entries pair it with itself) SRRLELAARINKAAAENARSAIEIQELAARLADELSSSKKVIDFARATTEVLRMSVKLLKLSLEMLEEAARQDGRSEEVRYLAEESKKILEEARKALEDADRLTKRIEEEGS binds

Look up binding result: 2L6Hanti_3 (designed binder, Monomer subunit of a designed left-handed antiparallel homodimer; entries pair it with itself) SEKARIAVENLEAALRLNRAAAEMQKSAIKIMDDNRSDEKALRYLRLTTKVLRMSVELLRASLELAEKALREEGSDDSAEKVRKEAEEILKESTEILKEADKETKRADEEGS binds
